# subject-of-test: UDP-3-O-acyl-N-acetylglucosamine deacetylase (Escherichia coli K-12)
pIC50: −log10 of the molar value.
Lab note: class by pIC50, see low value: < 7; medium value: ≥ 7 and < 8; high value: ≥ 8

INSERT INTO results (molecule, category) VALUES
  ('C[C@@H](O)[C@@H](NC(=O)N1CCN(c2ccc(-c3ccccc3)cc2)CC1)C(=O)NO', 'high value'),
  ('C[C@@H](O)[C@@H](NC(=O)NCCc1ccc(C#Cc2ccccc2)cc1)C(=O)NO', 'low value'),
  ('C[C@@H](O)[C@@H](NC(=O)N1CCC(c2ccc(C#Cc3ccccc3)cc2)C1)C(=O)NO (stereo not given in full)', 'medium value');

For this molecule, which bin applies? "C[C@@H](O)[C@H](C(=O)NO)N1Cc2cc(Br)ccc2C1=O"
low value

For this molecule, which bin applies? "C[C@@H](O)[C@H](C(=O)NO)N1Cc2cc(-c3ccc(-c4ccccc4)cc3)ccc2C1=O"
medium value

For this molecule, which bin applies? "C[C@@H](O)[C@H](C(=O)NO)N1Cc2cc(-c3ccccc3)ccc2C1=O"
low value

For this molecule, which bin applies? "CC(C)(O)[C@@H](NC(=O)N1CCN(c2ccc(C#Cc3ccccc3)cc2)CC1)C(=O)NO"
high value

For this molecule, which bin applies? "C[C@@H](O)[C@@H](NC(=O)N1CCC(C#Cc2ccccc2)CC1)C(=O)NO"
low value

###

# Test system: Pseudomonas aeruginosa
# experiment-notes: Antimicrobial activity against multidrug-resistant Pseudomonas aeruginosa by broth dilution assay
# Format: functional
measurement-type: MIC

Past entries and their recorded results:
INSERT INTO results (compound_structure_string, measurement_type, measured) VALUES
  ('O=C(O)c1cn(C2CC2)c2cc(N3CCNCC3)c(F)cc2c1=O', 'MIC', '> 8 µg/mL'),
  ('O=C(N[C@H](CO)[C@H](O)c1ccc([N+](=O)[O-])cc1)C(Cl)Cl', 'MIC', '> 256 µg/mL'),
  ('C[C@@H](O)[C@@H](NC(=O)N1CCC(c2ccc(-c3ccccc3)cc2)CC1)C(=O)NO', 'MIC', '> 12.5 µg/mL');

Moving on to another compound below.
// returns reported MIC for input "CC1(C)S[C@@H]2[C@H](NC(=O)[C@H](N)c3ccccc3)C(=O)N2[C@H]1C(=O)O"
> 256 µg/mL

###

# subject-of-test: UDP-3-O-acyl-N-acetylglucosamine deacetylase (Escherichia coli K-12, UniProt P0A725)
# Sequence (P0A725 whole entry): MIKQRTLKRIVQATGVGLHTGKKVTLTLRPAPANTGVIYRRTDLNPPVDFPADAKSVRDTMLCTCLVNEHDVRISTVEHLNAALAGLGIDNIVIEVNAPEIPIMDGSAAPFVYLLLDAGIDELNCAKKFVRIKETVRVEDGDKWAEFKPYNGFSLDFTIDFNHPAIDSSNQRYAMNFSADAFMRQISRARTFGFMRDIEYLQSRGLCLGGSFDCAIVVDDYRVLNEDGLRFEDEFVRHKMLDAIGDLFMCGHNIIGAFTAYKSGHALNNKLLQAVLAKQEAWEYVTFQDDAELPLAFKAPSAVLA
I'd appreciate it if you could supply pIC50 values for the items below.
Give bare numbers, as −log10 of the molar value.

INSERT INTO measurements (molecule, measurement_type, measured) VALUES
  ('C[C@@H](O)[C@@H](NC(=O)N1CCN(c2ccc(C#Cc3ccc(CO)cc3)cc2)CC1)C(=O)NO', 'pIC50', 7.92),
  ('C[C@@H](O)[C@@H](NC(=O)N1CCN(c2ccc(-c3ccc(N4CCOCC4)cc3)cc2)CC1)C(=O)NO', 'pIC50', 7.79);

Look up pIC50 for the entries below, preserving their order.
1. C[C@@H](O)[C@@H](NC(=O)N1CCN(c2ccc(-c3cncs3)cc2)CC1)C(=O)NO
2. C[C@@H](O)[C@@H](NC(=O)N1CCN(c2ccc(C#Cc3ccc(C(F)(F)F)cc3)cc2)CC1)C(=O)NO
3. C[C@@H](O)[C@@H](NC(=O)N1CCN(c2ccc(C#Cc3cccnc3)cc2)CC1)C(=O)NO
4. NC[C@@H](NC(=O)N1CCC(c2ccc(C#Cc3ccccc3)cc2)CC1)C(=O)NO
5. C[C@@H](O)[C@@H](NC(=O)N1CCC(c2cccc(C#Cc3ccccc3)c2)C1)C(=O)NO (some centres not stated)

1. 7.92
2. 7.98
3. 7.20
4. 6.79
5. 6.83

Hello, the source for this data is ChEMBL document CHEMBL1667853, in case you need it.
